Target: T1, Tat44-60 WT (HIV-1, UniProt P04608)
T1 chain: GISYGRKKRRQRRRAHQ
Assay: 2AP fluorescence lifetime
Conditions: label: 2AP; hairpin

| binder | binding result |
| --- | --- |
| 2AP20 TAR2GC (structured_RNA, 2-aminopurine at A20) RNA: GGUCUCUCUGGUUAGACCAGAUCUGAGCCUGGGAGCUCUCUGGCUAACUAGGGAACC | binds |
| 2AP24 TAR2GC (structured_RNA, 2-aminopurine at C24) RNA: GGUCUCUCUGGUUAGACCAGAUAUGAGCCUGGGAGCUCUCUGGCUAACUAGGGAACC | binds |
| 2AP17 TAR2GC (structured_RNA, 2-aminopurine at A17) RNA: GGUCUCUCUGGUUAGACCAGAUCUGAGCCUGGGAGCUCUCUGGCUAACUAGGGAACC | binds |
| 2AP3 TAR2GC C57U (structured_RNA, 2-aminopurine at G3; C57U) RNA: GAUCUCUCUGGUUAGACCAGAUCUGAGCCUGGGAGCUCUCUGGCUAACUAGGGAAUC | binds |
